Biological target: recombinant human ACC2 (Homo sapiens, UniProt O00763)
Construct: a full length Cytomax clone of ACC2 was purchased from Cambridge Bioscience Limited; made in house; host or cells: CHO cells (tetracycline induction, pcDNA5 FRT TO-TOPO); purified on a Softlink Soft Release Avidin column
Sequence (O00763 whole entry): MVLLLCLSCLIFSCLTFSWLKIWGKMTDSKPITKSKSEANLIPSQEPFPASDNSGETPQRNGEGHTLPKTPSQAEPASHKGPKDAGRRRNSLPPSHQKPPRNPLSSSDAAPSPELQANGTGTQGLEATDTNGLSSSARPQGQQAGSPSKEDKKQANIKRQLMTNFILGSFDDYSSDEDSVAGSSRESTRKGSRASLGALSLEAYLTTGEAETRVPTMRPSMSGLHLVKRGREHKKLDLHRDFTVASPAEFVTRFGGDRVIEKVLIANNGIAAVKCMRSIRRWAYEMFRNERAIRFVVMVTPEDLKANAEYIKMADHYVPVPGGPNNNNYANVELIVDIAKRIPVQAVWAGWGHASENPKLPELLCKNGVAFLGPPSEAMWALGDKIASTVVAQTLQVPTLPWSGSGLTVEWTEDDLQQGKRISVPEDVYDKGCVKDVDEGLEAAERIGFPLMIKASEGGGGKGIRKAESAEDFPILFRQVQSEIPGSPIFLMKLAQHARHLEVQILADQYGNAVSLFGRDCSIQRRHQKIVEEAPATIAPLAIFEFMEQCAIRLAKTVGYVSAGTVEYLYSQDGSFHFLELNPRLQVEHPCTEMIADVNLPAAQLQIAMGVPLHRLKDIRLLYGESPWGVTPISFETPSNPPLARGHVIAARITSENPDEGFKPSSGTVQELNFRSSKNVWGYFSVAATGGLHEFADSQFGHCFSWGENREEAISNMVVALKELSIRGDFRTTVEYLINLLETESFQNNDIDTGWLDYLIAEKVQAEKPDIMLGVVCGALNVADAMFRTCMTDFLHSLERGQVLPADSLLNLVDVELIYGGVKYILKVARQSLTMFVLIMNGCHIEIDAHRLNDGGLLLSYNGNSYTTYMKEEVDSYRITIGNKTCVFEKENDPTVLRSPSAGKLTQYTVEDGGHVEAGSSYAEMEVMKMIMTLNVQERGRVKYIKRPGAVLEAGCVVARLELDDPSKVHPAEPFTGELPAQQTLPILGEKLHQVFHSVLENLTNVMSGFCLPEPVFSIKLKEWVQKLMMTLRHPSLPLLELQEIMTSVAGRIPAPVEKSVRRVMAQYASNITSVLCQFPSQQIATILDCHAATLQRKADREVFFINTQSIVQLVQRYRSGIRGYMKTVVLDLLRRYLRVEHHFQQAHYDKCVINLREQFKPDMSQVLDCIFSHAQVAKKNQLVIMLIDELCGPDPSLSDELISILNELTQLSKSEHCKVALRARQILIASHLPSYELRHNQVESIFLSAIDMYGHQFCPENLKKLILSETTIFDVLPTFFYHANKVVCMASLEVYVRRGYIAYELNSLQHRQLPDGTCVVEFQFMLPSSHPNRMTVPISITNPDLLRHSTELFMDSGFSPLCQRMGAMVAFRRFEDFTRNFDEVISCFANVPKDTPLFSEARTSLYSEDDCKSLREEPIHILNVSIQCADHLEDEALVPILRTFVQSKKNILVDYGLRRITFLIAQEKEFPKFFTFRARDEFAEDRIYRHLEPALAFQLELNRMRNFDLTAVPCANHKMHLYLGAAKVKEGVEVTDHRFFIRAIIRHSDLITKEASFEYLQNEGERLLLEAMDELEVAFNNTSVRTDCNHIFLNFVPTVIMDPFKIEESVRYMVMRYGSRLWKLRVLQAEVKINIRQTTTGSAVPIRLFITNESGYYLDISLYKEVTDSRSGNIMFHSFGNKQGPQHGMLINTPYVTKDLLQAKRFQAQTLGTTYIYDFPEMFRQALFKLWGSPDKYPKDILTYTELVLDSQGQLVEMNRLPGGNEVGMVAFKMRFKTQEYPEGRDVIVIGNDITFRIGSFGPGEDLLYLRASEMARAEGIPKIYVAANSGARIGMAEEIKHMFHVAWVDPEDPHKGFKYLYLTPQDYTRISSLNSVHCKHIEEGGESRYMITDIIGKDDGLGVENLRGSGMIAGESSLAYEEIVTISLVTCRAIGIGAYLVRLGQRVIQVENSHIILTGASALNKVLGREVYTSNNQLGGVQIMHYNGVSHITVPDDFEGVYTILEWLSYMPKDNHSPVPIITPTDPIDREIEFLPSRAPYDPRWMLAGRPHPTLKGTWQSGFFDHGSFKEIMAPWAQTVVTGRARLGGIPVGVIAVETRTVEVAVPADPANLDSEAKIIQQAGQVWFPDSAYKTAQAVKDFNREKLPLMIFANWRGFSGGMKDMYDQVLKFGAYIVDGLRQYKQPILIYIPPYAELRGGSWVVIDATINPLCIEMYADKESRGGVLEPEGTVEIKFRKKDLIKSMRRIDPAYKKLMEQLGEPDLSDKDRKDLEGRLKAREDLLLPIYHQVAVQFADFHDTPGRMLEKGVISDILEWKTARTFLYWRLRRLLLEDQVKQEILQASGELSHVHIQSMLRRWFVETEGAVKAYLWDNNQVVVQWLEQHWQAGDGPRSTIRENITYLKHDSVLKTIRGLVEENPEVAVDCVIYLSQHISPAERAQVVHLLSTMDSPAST
Assay: Measurement of human ACC2 inhibition (recombinant hACC2 Transcreener ADP detection FP assay)
Type: biochemical
Details: recombinant hACC2 transcreener assay; read-out: rhACC2 IC50
pIC50: −log10 of the molar value.
recorded-endpoint: pIC50

Illustrative cases are given below, each with its answer.
CCn1nc2c(c1C)OC1(CCN(C(=O)c3ccc4c(c3)NC(=O)CC4)CC1)CC2=O	7.44
CCCn1cc2c(n1)C(=O)CC1(CCN(C(=O)c3cc(C)c4[nH]ncc4c3)CC1)O2	7.37
Cc1cc(C(=O)N2CCC3(CC2)CC(=O)c2nn(C(C)C)cc2O3)cc2cnsc12	7.74
CC(C)(C)n1cc2c(n1)C(=O)CC1(CCN(C(=O)c3ccc4cccnc4c3)CC1)O2	7.92
CC(C)(C)n1cc2c(n1)C(=O)CC1(CCN(C(=O)c3ccc4c(c3)CCC(=O)N4)CC1)O2	7.48

A = CCn1cc2c(n1)C(=O)CC1(CCN(C(=O)c3ccc4[nH]nc(C)c4c3)CC1)O2
B = Cn1c(O)nc2cc(C(=O)N3CCC4(CC3)CC(=O)c3nn(C(C)(C)C)cc3O4)ccc21
C = COc1cc(C(=O)N2CCC3(CC2)CC(=O)c2nn(C(C)C)c(C)c2O3)cc2c(C)n[nH]c12
input: Arrange these compounds by their pIC50, starting with the largest number. Kindly provide the labels arranged according to the requested ordering.
output: C, B, A
(C: 8.40, B: 7.74, A: 7.37)
